System: Plasmodium berghei
assay.explanation: Luciferase/luciferin-expressing antifolate-resistant parasites were used to infect a culture of HepG2 cells that were pre-incubated with compounds. Infected hepatocytes emit light due to the luciferase reaction. Assay results are presented as the percent inhibition of light emission compared to control. […]
Type: functional
run.conditions: sporozoite, FFLUC_HILL_SLOPE 22.9, FFLUC_R_SQUARED 0.117, read-out: LUCIFERASE INFECTION ASSAY - IC50
quantity: IC50

According to the records, this compound COc1ccc(C(=O)Nc2ccc3nc(-c4ccccc4)nn3c2)cc1F displays IC50 of > 10 µM

====

Test system: Plasmodium berghei
assay.explanation: Luciferase/luciferin-expressing antifolate-resistant parasites were used to infect a culture of HepG2 cells that were pre-incubated with compounds. Infected hepatocytes emit light due to the luciferase reaction. Assay results are presented as the percent inhibition of light emission compared to control. […]
Type: functional
run.conditions: sporozoite, FFLUC_HILL_SLOPE 11.6, FFLUC_R_SQUARED 0.426, read-out: LUCIFERASE INFECTION ASSAY - IC50
pIC50: −log10 of the molar value.
quantity: pIC50

For record O=C(Cc1coc2ccc3ccccc3c12)Nc1cc(Cl)ccc1N1CCOCC1 the listed pIC50 is < 5.00

====

System: Plasmodium berghei
assay.explanation: Luciferase/luciferin-expressing antifolate-resistant parasites were used to infect a culture of HepG2 cells that were pre-incubated with compounds. Infected hepatocytes emit light due to the luciferase reaction. Assay results are presented as the percent inhibition of light emission compared to control. […]
Format: functional
run.conditions: sporozoite, FFLUC_HILL_SLOPE 0.665, FFLUC_R_SQUARED 0.0104, HEPG2TOX_HILL_SLOPE 4.1, HEPG2TOX_R_SQUARED 0.712, read-out: LUCIFERASE INFECTION ASSAY - IC50
pIC50: −log10 of the molar value.
quantity: pIC50

Known value: Plasmodium berghei pIC50 of the molecule c1csc(-c2cnc3sc(NCCc4ccncc4)nn23)c1 equals < 5.00

====

Test system: Plasmodium berghei
assay.explanation: Luciferase/luciferin-expressing antifolate-resistant parasites were used to infect a culture of HepG2 cells that were pre-incubated with compounds. Infected hepatocytes emit light due to the luciferase reaction. Assay results are presented as the percent inhibition of light emission compared to control. […]
Type: functional
run.conditions: sporozoite, HEPG2TOX_HILL_SLOPE 2.87, HEPG2TOX_R_SQUARED 0.919, PBLUC_HILL_SLOPE 1.54, PBLUC_R_SQUARED 0.645, read-out: LUCIFERASE INFECTION ASSAY - IC50
quantity: IC50 (nM)
# value in nM; strip the unit string

# IC50 measured on Plasmodium berghei for item Cc1cccc(C(=O)Nc2ccc(N3CCc4sccc4C3)nc2)c1[N+](=O)[O-] = 2520

====

Parameter IC90: see the listing below.
Tested on: Plasmodium berghei
assay.explanation: Luciferase/luciferin-expressing antifolate-resistant parasites were used to infect a culture of HepG2 cells that were pre-incubated with compounds. Infected hepatocytes emit light due to the luciferase reaction. Assay results are presented as the percent inhibition of light emission compared to control. […]
Format: functional
run.conditions: sporozoite, read-out: LUCIFERASE INFECTION ASSAY - IC90

Fill in: Plasmodium berghei IC90 for COCc1cccc(-c2cc(-c3cccc4ccccc34)cnc2N)c1 = 1.23 µM

The recorded IC90 with Plasmodium berghei for CCN1C(=O)N(Cc2cccc(OC)c2)C(=O)C12CCN(Cc1cnc(-c3ccccc3)s1)CC2 was > 6.73 µM

Tested on Plasmodium berghei: CCOC(=O)CSCc1noc(COc2ccc(Cl)cc2Cl)n1 . Observed IC90: 0.26 µM

Measured on Plasmodium berghei, CC(C)N(Cc1ccccc1)C(=S)NC(=O)C1(C)CC1(Cl)Cl (stereo not drawn) has a documented IC90 of > 10 µM

Plasmodium berghei assay, molecule S=C(Nc1ccccc1)N1CCCN(c2nc3ccc(Cl)cc3s2)CC1 , recorded IC90 = 3.16 µM

Param item: Cc1cc(OCC(=O)NC(C)c2ccc(-n3cncn3)cc2)no1 (stereo not drawn) ; param system: Plasmodium berghei; output IC90: > 10 µM

I looked up O=C1C=C/C(=N/N(Cc2ccccc2)c2ccccc2)O1 and its IC90 for Plasmodium berghei was > 10 µM

Measured IC90 for this entry CSc1nccc(-c2sc3scc(C)c3c2C)n1 on Plasmodium berghei: > 11.3 µM

Record for COc1ccccc1-c1ccc2ncc(-c3cccnc3)n2n1 under target or system Plasmodium berghei: IC90 reported as 4.41 µM

Entry COc1cc(OC)cc(-c2cc3c(Nc4cccc(S(C)(=O)=O)c4)nccc3n2C)c1 ; assay system Plasmodium berghei; IC90 recorded at > 10 µM

Observed IC90, Plasmodium berghei, c1csc(-c2cn3c(-c4ccc5ncccc5c4)cnc3cn2)c1 : 8.95 µM

Log: Plasmodium berghei, molecule Cc1ccc(-n2c(-c3ccc(F)cc3)nc3c2C(=O)c2ccccc2C3=O)cc1 , IC90 = > 10 µM

Item CCOC(=O)c1cc(C#N)c(Sc2nnc(SCC3CC3)s2)nc1C(F)(F)F ; assay system Plasmodium berghei; IC90 reported as > 7.39 µM

Log: Plasmodium berghei, molecule N#Cc1ccsc1NC(=O)COc1ccc([N+](=O)[O-])cc1Cl , IC90 = > 10 µM

Entry Cc1csc(NC(=O)Nc2cc(C(F)(F)F)cc(C(F)(F)F)c2)c1Cl under Plasmodium berghei had IC90 of 2.61 µM

====

Test system: Plasmodium berghei
assay.explanation: Luciferase/luciferin-expressing antifolate-resistant parasites were used to infect a culture of HepG2 cells that were pre-incubated with compounds. Infected hepatocytes emit light due to the luciferase reaction. Assay results are presented as the percent inhibition of light emission compared to control. […]
Format: functional
run.conditions: sporozoite, HEPG2TOX_HILL_SLOPE 2.36, HEPG2TOX_R_SQUARED 0.798, PBLUC_HILL_SLOPE 15.6, PBLUC_R_SQUARED 0.417, read-out: LUCIFERASE INFECTION ASSAY - IC50
quantity: pIC50
As a rule, pIC50 stands for the negative log10 of the concentration, concentration in M.

Per the record, COc1cccc(CN(C)c2ncnc3sc(C)c(C)c23)c1OC has pIC50 of 5.48

====

Below: a set of entries, each annotated with reported IC50.
Tested on: Plasmodium berghei
assay.explanation: Luciferase/luciferin-expressing antifolate-resistant parasites were used to infect a culture of HepG2 cells that were pre-incubated with compounds. Infected hepatocytes emit light due to the luciferase reaction. Assay results are presented as the percent inhibition of light emission compared to control. […]
Format: functional
run.conditions: sporozoite, read-out: LUCIFERASE INFECTION ASSAY - IC50

Solved cases (3 shown):
COc1ccc(/C=C2\CCCc3c2nc2ncnn2c3-c2ccc(OC)cc2)cc1 | > 10 µM
CNc1cc(CSCc2ccc(Cl)cc2)nc(-c2ccccc2)n1 | > 9.27 µM
CCn1c2ccccc2c2cc(Nc3cc(-c4ccc(O)cc4)ncn3)ccc21 | 2.24 µM

Item: CNc1nc2cnc(Nc3cccc(N(C)C)c3)cc2n1-c1cc(OC)c(OC)c(OC)c1 | IC50: > 10 µM

====

System: Plasmodium berghei
assay.explanation: Luciferase/luciferin-expressing antifolate-resistant parasites were used to infect a culture of HepG2 cells that were pre-incubated with compounds. Infected hepatocytes emit light due to the luciferase reaction. Assay results are presented as the percent inhibition of light emission compared to control. […]
Assay type: functional
run.conditions: sporozoite, HEPG2TOX_HILL_SLOPE 1.44, HEPG2TOX_R_SQUARED 0.736, PBLUC_HILL_SLOPE 1.22, PBLUC_R_SQUARED 0.605, read-out: LUCIFERASE INFECTION ASSAY - IC50
quantity: pIC50
Lab note: report pIC50 as minus log10 of the concentration in molar units, number only.

Recorded pIC50 (molecule c1nc(NCc2ccc(CN3CCOCC3)cc2)c2sccc2n1 ): 5.54

====

Test system: Plasmodium berghei
assay.explanation: Luciferase/luciferin-expressing antifolate-resistant parasites were used to infect a culture of HepG2 cells that were pre-incubated with compounds. Infected hepatocytes emit light due to the luciferase reaction. Assay results are presented as the percent inhibition of light emission compared to control. […]
Format: functional
run.conditions: sporozoite, PBLUC_HILL_SLOPE 15.9, PBLUC_R_SQUARED 0.269, read-out: LUCIFERASE INFECTION ASSAY - IC50
quantity: IC50 (µM)
Answer format: numeric, µM implied, no suffix.

Looking up Cc1c(Cl)cccc1-n1c(SCC(=O)N(CCC#N)c2ccccc2)nc2ccccc2c1=O , I see its IC50 listed as 9.73

====

System: Plasmodium berghei
assay.explanation: Luciferase/luciferin-expressing antifolate-resistant parasites were used to infect a culture of HepG2 cells that were pre-incubated with compounds. Infected hepatocytes emit light due to the luciferase reaction. Assay results are presented as the percent inhibition of light emission compared to control. […]
Format: functional
run.conditions: sporozoite, read-out: LUCIFERASE INFECTION ASSAY - IC50
quantity: IC50

COc1ccc(-c2csc(CC(=O)NCc3ccccc3)n2)c(OC)c1 | > 10 µM

# IC50 (compound: FC(F)(F)c1ccc2nc(SCc3c(Cl)cccc3Cl)[nH]c2c1 ) is > 7.98 µM

Sure, the documented IC50 for CCCCCCc1ccc(-c2csc(NC(=O)CSc3nnc(C(F)(F)F)n3C)n2)cc1 is > 10 µM

The measured IC50 associated with COc1ccc(S(=O)(=O)Nc2ccccc2Sc2ncnc3scc(C)c23)cc1 reads > 7.44 µM

According to the records, this compound Cc1sc2nc(CN3CCOCC3)nc(NCCc3c[nH]c4ccccc34)c2c1C displays IC50 of > 10 µM

# IC50 of O=C(c1ccoc1)N1CCN(Cc2sc3ccccc3c2Cl)CC1 = > 10 µM

In plain terms, COc1cc(C(=O)OCc2c(C)cc(C(C)(C)C)cc2C)cc(OC)c1OC has a documented IC50 of > 10 µM

Per the records, this compound ( CN(C)C(=O)CC(NC(=O)Nc1ccc(F)cc1F)c1ccccc1 (stereo unspecified) ) has IC50 equal to > 10 µM

The recorded IC50 for N#Cc1c(Cl)c2ccccc2[nH]c1=O is 14.9 µM

Form: compound = Cc1cccc(N2CCN(C(=O)/C=C/c3cnn(-c4ccccc4)c3)CC2)c1 ; IC50 = > 10 µM

Input CCOC(=O)c1c(C)[nH]c(C(=O)C(C)Sc2nnc(-c3ccccc3)c(-c3ccccc3)n2)c1C (stereo unspecified) . Output IC50: > 10 µM
